Target: human GPR119 (Homo sapiens)
Sequence (Q8TDV5 1-335): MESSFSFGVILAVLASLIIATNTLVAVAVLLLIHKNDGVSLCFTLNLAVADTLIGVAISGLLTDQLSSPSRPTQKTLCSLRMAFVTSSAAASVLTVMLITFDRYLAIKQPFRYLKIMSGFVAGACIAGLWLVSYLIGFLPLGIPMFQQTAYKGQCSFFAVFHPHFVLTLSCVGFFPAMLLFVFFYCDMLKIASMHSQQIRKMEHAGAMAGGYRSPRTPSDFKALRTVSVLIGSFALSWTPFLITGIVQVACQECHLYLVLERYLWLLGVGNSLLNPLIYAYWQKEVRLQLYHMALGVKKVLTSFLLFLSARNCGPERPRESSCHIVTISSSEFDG
Experiment: Cyclic AMP assay in stable cell line (Flp-In-CHO-hGPR119, HTRF)
Settings: Flp-In-CHO-hGPR119 cells, intracellular cAMP by HTRF, 1 mM IBMX, 37° C. for 30 minutes; read-out: CHO-GPR119-HTRF (3158)
pEC50: −log10 of the molar value.
REPORTED ENDPOINT: pEC50

Previously resolved entries follow.
{"SMILES TEXT": "CCc1cnc(N2CCC(Oc3ccc(CN4CCN(S(C)(=O)=O)CC4)cc3F)CC2)nc1", "ASSAY VALUE": 7.70}
{"SMILES TEXT": "CCc1cnc(N2CCC(Oc3ccc(CN4CCN(S(C)(=O)=O)CC4)cc3NCCOC)CC2)nc1", "ASSAY VALUE": 6.87}

[I] CCc1cnc(N2CCC(Oc3ccc(CN4CCN(S(C)(=O)=O)CC4)c(C)c3)CC2)nc1
[II] CCc1cnc(N2CCC(Oc3ccc(CN4CCN(S(C)(=O)=O)CC4=O)cc3Cl)CC2)nc1
// query Hi, I'm comparing I with II and wondering which one has the bigger number for pEC50. Any idea? // return label of chosen record
// result I
